Biological target: CTLA-4 (Homo sapiens (Human)) (UniProt P16410)
Sequence (P16410 36-223): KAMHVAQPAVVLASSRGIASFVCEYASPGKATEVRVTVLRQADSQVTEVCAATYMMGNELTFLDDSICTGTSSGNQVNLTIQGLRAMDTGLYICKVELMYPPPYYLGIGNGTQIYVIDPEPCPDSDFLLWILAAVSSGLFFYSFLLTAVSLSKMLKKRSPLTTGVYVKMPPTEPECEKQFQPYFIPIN
Test: flow cytometry, transfected cells
Entry flag: true (1) if MFI ratio to WT (ΔWT) reaches 0.02 fold; false (0) if it does not.

Field: example entries. Status: answers known.
# BINDER, CLASS LABEL
data = [
    ("ICOSL-Fc N52R/N57L/Q100S (Fc fusion) DTQEKEVRAMVGSDVELSCACPEGSRFDLNDVYVYWQTSESKTVVTYHIPQRSSLELVDSRYRNRALMSPAGMLRGDFSLRLFNVTPQDEQKFHCLVLSSSLGFQEVLSVEVTLHVAANFSVPVVSAPHSPSQDELTFTCTSINGYPRPNVYWINKTDNSLLDQALQNDTVFLNMRGLYDVVSVLRIARTPSVNIGCCIENVLLQQNLTVGSQTGNDIGERDKITENPVSTGEKNAAT", "true (1)"),
    ("ICOSL-Fc N52T/N57H/Q100A (Fc fusion) DTQEKEVRAMVGSDVELSCACPEGSRFDLNDVYVYWQTSESKTVVTYHIPQTSSLEHVDSRYRNRALMSPAGMLRGDFSLRLFNVTPQDEQKFHCLVLSASLGFQEVLSVEVTLHVAANFSVPVVSAPHSPSQDELTFTCTSINGYPRPNVYWINKTDNSLLDQALQNDTVFLNMRGLYDVVSVLRIARTPSVNIGCCIENVLLQQNLTVGSQTGNDIGERDKITENPVSTGEKNAAT", "true (1)"),
]

*Q* Is it the case that ICOSL-Fc N52R/N57Y/Q100R (Fc fusion) DTQEKEVRAMVGSDVELSCACPEGSRFDLNDVYVYWQTSESKTVVTYHIPQRSSLEYVDSRYRNRALMSPAGMLRGDFSLRLFNVTPQDEQKFHCLVLSRSLGFQEVLSVEVTLHVAANFSVPVVSAPHSPSQDELTFTCTSINGYPRPNVYWINKTDNSLLDQALQNDTVFLNMRGLYDVVSVLRIARTPSVNIGCCIENVLLQQNLTVGSQTGNDIGERDKITENPVSTGEKNAAT has MFI ratio to WT (ΔWT) reaching or exceeding 0.02 fold?
*A* false (0)

*Q* Is it the case that ICOSL-Fc N52V/N57T/Q100L (Fc fusion) DTQEKEVRAMVGSDVELSCACPEGSRFDLNDVYVYWQTSESKTVVTYHIPQVSSLETVDSRYRNRALMSPAGMLRGDFSLRLFNVTPQDEQKFHCLVLSLSLGFQEVLSVEVTLHVAANFSVPVVSAPHSPSQDELTFTCTSINGYPRPNVYWINKTDNSLLDQALQNDTVFLNMRGLYDVVSVLRIARTPSVNIGCCIENVLLQQNLTVGSQTGNDIGERDKITENPVSTGEKNAAT has MFI ratio to WT (ΔWT) reaching or exceeding 0.02 fold?
*A* true (1)
